- target_under_test: mushroom tyrosinase
- method_description: Tyrosinase inhibition (mushroom tyrosinase, L-DOPA, dopachrome absorbance at 475 nm)
- Type: biochemical
- conditions: pH 6.8, 22° C., L-DOPA substrate; concentration with 40 to 60% inhibition in a minimum of two trials taken as IC50
Counter-ions that a name gives are not always drawn.
// reported IC50 per item
Numeric only. Scale: µg/mL

| compound | measure | value_observed |
| --- | --- | --- |
| CCCCCCCCO [Octanol] | IC50 | 12.5 |
| CC(C)=CCCC(C)CC#N (centres unmarked) [Citronellyinitrile, citronellylnitrile] | IC50 | 9.4 |
| CC(C)=CCCC(C)CCOC(=O)C(C)C (centres unmarked) [Citronellyl isobutyrate] | IC50 | 6.3 |
| CC(C)=CCCC(C)CCOC=O (centres unmarked) [Citronellyl formate] | IC50 | 6.3 |
| CC(C)=CCCC(C)=CCCC(C)=CCOC(=O)c1ccccc1 [Farnesyl benzoate] | IC50 | 25.0 |
| CC(C)=CCC/C(C)=C/CO [Geraniol] | IC50 | 6.3 |
| CC(=O)OCCC(C)CCC=C(C)C (centres unmarked) [Citronellyl acetate] | IC50 | 18.8 |
| CC(C)=CCCC(C)CCO (centres unmarked) [Citronellol] | IC50 | 6.3 |

Field IC50 (system: mushroom tyrosinase) for entry OC[C@H]1O[C@@H](Oc2ccc(O)cc2)[C@H](O)[C@@H](O)[C@@H]1O [Arbutin, reference compound] = 63

IC50 for mushroom tyrosinase with input CC(C)=CCCC(C)CCOC(=O)c1ccccc1 (centres unmarked) [Citronellyl benzoate] equals 6.3

# C=CC(C)CCCC(C)(C)O (centres unmarked) [Dihydromyrcenol] with mushroom tyrosinase: IC50 is 12.5

// IC50 (mushroom tyrosinase) for CC(C)=CCCC(C)=CCCC(C)=CCOC(=O)C(C)C [Farnesyl isobutyrate] = 12.5

Noted IC50 for C=CC(C)(O)CCC=C(C)CCC=C(C)C (centres unmarked) [Nerolidol] , tested on mushroom tyrosinase: 12.5

// compound CC(C)=CCCC(C)=CCCC(C)=CCOC(=O)Cc1ccccc1 [Farnesyl phenylacetate] , assay mushroom tyrosinase, IC50 value: 12.5

Reading of IC50 for CC(C)=CCC/C(C)=C/COC(=O)C(C)C [Geranyl isobutyrate] with mushroom tyrosinase: 12.5

Record CCCCCCCCCCO [Decanol] / mushroom tyrosinase, IC50 recorded as 12.5

Observed IC50 on mushroom tyrosinase, entry CC(C)=CCCC(C)CC=O (centres unmarked) [Citronellal] , equals 9.4

* * *

Reported IC50 values are given for each entry in this list.
- target_under_test: mushroom tyrosinase
- method_description: Tyrosinase inhibition (mushroom tyrosinase, L-DOPA, dopachrome absorbance at 475 nm)
- Assay type: biochemical
- conditions: pH 6.8, 22° C., L-DOPA substrate; concentration with 40 to 60% inhibition in a minimum of two trials taken as IC50
- Method: Inhibition tests were carried out using aqueous solvents. […] Tests were carried out according to conventional procedure as follows. […] After incubation at 22° C. for 2 minutes, the amount of dopachrome in the reaction mixture was measured as absorbance (optical density) at 475 nm. The change in absorbance with or without different test samples was monitored every 30 seconds for the following 2.5 minutes using a Beckman DU-64 spectrophotometer (Beckman, Palo Alto, Calif.). […] ^A final=Final absorbance […]
Answer shape: numeric part, then the unit.

The following compounds have reported results that may help.
| compound | value_observed |
| --- | --- |
| CC(C)=CCCC(C)=CCCC(C)=CCO [Farnesol] | 12.5 µg/mL |
| CCC(=O)OCCC(C)CCC=C(C)C (stereo not drawn) [Citronellyl propionate] | 12.5 µg/mL |

Kindly review the next compound as well.
So for CCCC(=O)OCCC(C)CCC=C(C)C (stereo not drawn) [Citronellyl butyrate] , the logged IC50 turned out to be 37.5 µg/mL

Data provenance: patent US5466718A
